Data origin, for the record: BigSolDB 2.1

conditions: in n-propanol, 288.15 K
QUANTITY_NAME: solubility (mole fraction)
Just the number.

For record CC(=O)Oc1ccc(C(c2ccc(OC(C)=O)cc2)c2ccccn2)cc1 the listed solubility (mole fraction) is 0.000115

###

conditions: in ethanol, 303.15 K
QUANTITY_NAME: solubility (mole fraction)

Per the records, this compound ( CC(=O)Oc1ccc(C(c2ccc(OC(C)=O)cc2)c2ccccn2)cc1 ) has solubility (mole fraction) equal to 0.000159

###

details: in DMF, 313.15 K
QUANTITY_NAME: solubility (mole fraction)
Respond numerically, and do not add a unit to the figure.

// CC(=O)Oc1ccc(C(c2ccc(OC(C)=O)cc2)c2ccccn2)cc1 : solubility (mole fraction) value = 0.00496

###

conditions: in toluene, 283.15 K
QUANTITY_NAME: solubility (mole fraction)
Format: numeric value only, no unit, no commentary.

// solubility (mole fraction) value for CC(=O)Oc1ccc(C(c2ccc(OC(C)=O)cc2)c2ccccn2)cc1 : 0.000648

###

conditions: in n-propanol, 313.15 K
QUANTITY_NAME: solubility (mole fraction)

Field solubility (mole fraction) (entry CC(=O)Oc1ccc(C(c2ccc(OC(C)=O)cc2)c2ccccn2)cc1 ) reads 0.000304

###

conditions: in toluene, 278.15 K
QUANTITY_NAME: solubility (mole fraction)
// return just the number, without any unit appended

For reference, reported solubility (mole fraction) for CC(=O)Oc1ccc(C(c2ccc(OC(C)=O)cc2)c2ccccn2)cc1 stands at 0.000533

###

details: in n-propanol, 293.15 K
QUANTITY_NAME: solubility (mole fraction)
Please state the value as a number alone, without comment.

Please fill in: solubility (mole fraction) reported for CC(=O)Oc1ccc(C(c2ccc(OC(C)=O)cc2)c2ccccn2)cc1 = 0.000141

###

conditions: in isopropanol, 273.15 K
QUANTITY_NAME: solubility (mole fraction)
The reply should be a number, written without any unit.

solubility (mole fraction) reading for CC(=O)Oc1ccc(C(c2ccc(OC(C)=O)cc2)c2ccccn2)cc1 : 3.8e-05

###

settings: in acetonitrile, 283.15 K
QUANTITY_NAME: solubility (mole fraction)
Just the number.

Entry under test: CC(=O)Oc1ccc(C(c2ccc(OC(C)=O)cc2)c2ccccn2)cc1 . Its solubility (mole fraction) was 0.00136

###

details: in ethanol, 308.15 K
QUANTITY_NAME: solubility (mole fraction)
Lab note: record just the number, no unit beside it.

Given item CC(=O)Oc1ccc(C(c2ccc(OC(C)=O)cc2)c2ccccn2)cc1 , the value recorded as its solubility (mole fraction) is 0.000194

###

conditions: in isopropanol, 278.15 K
QUANTITY_NAME: solubility (mole fraction)
Respond using a number only.

Sample CC(=O)Oc1ccc(C(c2ccc(OC(C)=O)cc2)c2ccccn2)cc1 ; solubility (mole fraction) observed: 5.2e-05

###

details: in 1,4-dioxane, 298.15 K
QUANTITY_NAME: solubility (mole fraction)
Respond with the number and no other words.

Lab note: measured solubility (mole fraction) of CC(=O)Oc1ccc(C(c2ccc(OC(C)=O)cc2)c2ccccn2)cc1 was 0.00307

###

details: in ethanol, 313.15 K
QUANTITY_NAME: solubility (mole fraction)
# output: bare number, no unit

Noted for CC(=O)Oc1ccc(C(c2ccc(OC(C)=O)cc2)c2ccccn2)cc1 : its solubility (mole fraction) reads 0.00024

###

conditions: in n-butanol, 283.15 K
QUANTITY_NAME: solubility (mole fraction)
Format: numeric value only, no unit, no commentary.

Sure, the documented solubility (mole fraction) for CC(=O)Oc1ccc(C(c2ccc(OC(C)=O)cc2)c2ccccn2)cc1 is 0.000106

###

details: in DMF, 293.15 K
QUANTITY_NAME: solubility (mole fraction)

Lab book: solubility (mole fraction) of CC(=O)Oc1ccc(C(c2ccc(OC(C)=O)cc2)c2ccccn2)cc1 noted as 0.00325

###

conditions: in n-butanol, 278.15 K
QUANTITY_NAME: solubility (mole fraction)

In plain terms, CC(=O)Oc1ccc(C(c2ccc(OC(C)=O)cc2)c2ccccn2)cc1 has a documented solubility (mole fraction) of 8.8e-05

###

conditions: in toluene, 308.15 K
QUANTITY_NAME: solubility (mole fraction)
No unit in the answer, only the number.

Form field solubility (mole fraction), entry CC(=O)Oc1ccc(C(c2ccc(OC(C)=O)cc2)c2ccccn2)cc1 : 0.00141

###

conditions: in acetonitrile, 308.15 K
QUANTITY_NAME: solubility (mole fraction)
Answer field: number only, no words.

The molecule listed as CC(=O)Oc1ccc(C(c2ccc(OC(C)=O)cc2)c2ccccn2)cc1 has a reported solubility (mole fraction) of 0.00274

###

settings: in acetone, 308.15 K
QUANTITY_NAME: solubility (mole fraction)

get_value(item= CC(=O)Oc1ccc(C(c2ccc(OC(C)=O)cc2)c2ccccn2)cc1 , readout=solubility (mole fraction)) returns 0.00359

###

settings: in ethanol, 298.15 K
QUANTITY_NAME: solubility (mole fraction)
Lab note: write the figure by itself, no unit.

Notebook: CC(=O)Oc1ccc(C(c2ccc(OC(C)=O)cc2)c2ccccn2)cc1 , solubility (mole fraction) read as 0.00013

###

details: in toluene, 303.15 K
QUANTITY_NAME: solubility (mole fraction)
Reply briefly: the number, and no unit.

In plain terms, CC(=O)Oc1ccc(C(c2ccc(OC(C)=O)cc2)c2ccccn2)cc1 has a documented solubility (mole fraction) of 0.00122

###

conditions: in NMP, 313.15 K
QUANTITY_NAME: solubility (mole fraction)
Lab note: record just the number, no unit beside it.

// solubility (mole fraction) lookup, compound = CC(=O)Oc1ccc(C(c2ccc(OC(C)=O)cc2)c2ccccn2)cc1 , result: 0.00474

###

conditions: in ethyl acetate, 303.15 K
QUANTITY_NAME: solubility (mole fraction)
In your answer, state the number alone without any accompanying words.

Record summary for CC(=O)Oc1ccc(C(c2ccc(OC(C)=O)cc2)c2ccccn2)cc1 : reported solubility (mole fraction) = 0.00198

###

conditions: in acetone, 273.15 K
QUANTITY_NAME: solubility (mole fraction)
No unit in the answer, please; the number alone is enough.

For CC(=O)Oc1ccc(C(c2ccc(OC(C)=O)cc2)c2ccccn2)cc1 the compound record lists solubility (mole fraction) as 0.00126

###

details: in ethyl acetate, 283.15 K
QUANTITY_NAME: solubility (mole fraction)
Write the number on its own, no unit after it.

Entry CC(=O)Oc1ccc(C(c2ccc(OC(C)=O)cc2)c2ccccn2)cc1 , solubility (mole fraction) reported as 0.00107

###

details: in n-propanol, 308.15 K
QUANTITY_NAME: solubility (mole fraction)
Give a plain numeric answer without units written out.

Kindly note the recorded solubility (mole fraction) for CC(=O)Oc1ccc(C(c2ccc(OC(C)=O)cc2)c2ccccn2)cc1 , which is 0.000242

###

conditions: in 1,4-dioxane, 308.15 K
QUANTITY_NAME: solubility (mole fraction)
// return a plain number; no unit text

// solubility (mole fraction) lookup, compound = CC(=O)Oc1ccc(C(c2ccc(OC(C)=O)cc2)c2ccccn2)cc1 , result: 0.00378

###

details: in ethyl acetate, 298.15 K
QUANTITY_NAME: solubility (mole fraction)

Noted for CC(=O)Oc1ccc(C(c2ccc(OC(C)=O)cc2)c2ccccn2)cc1 : its solubility (mole fraction) reads 0.00171

###

details: in n-propanol, 298.15 K
QUANTITY_NAME: solubility (mole fraction)
The reply should be a number, written without any unit.

The value of solubility (mole fraction) measured for the compound CC(=O)Oc1ccc(C(c2ccc(OC(C)=O)cc2)c2ccccn2)cc1 turned out to be 0.00017

###

details: in isopropanol, 308.15 K
QUANTITY_NAME: solubility (mole fraction)
Form field (numeric): enter value without unit.

Query CC(=O)Oc1ccc(C(c2ccc(OC(C)=O)cc2)c2ccccn2)cc1 yields solubility (mole fraction) of 0.000166

###

settings: in methanol, 303.15 K
QUANTITY_NAME: solubility (mole fraction)
Give the figure by itself; no unit, no explanation.

solubility (mole fraction) measured on CC(=O)Oc1ccc(C(c2ccc(OC(C)=O)cc2)c2ccccn2)cc1 = 0.000171

###

details: in methanol, 308.15 K
QUANTITY_NAME: solubility (mole fraction)
Answer as a number with no unit attached.

// sample CC(=O)Oc1ccc(C(c2ccc(OC(C)=O)cc2)c2ccccn2)cc1 , its solubility (mole fraction) was 0.000207

###

details: in acetonitrile, 298.15 K
QUANTITY_NAME: solubility (mole fraction)
Could you respond with only the numeric value?

For CC(=O)Oc1ccc(C(c2ccc(OC(C)=O)cc2)c2ccccn2)cc1 the molecule record lists solubility (mole fraction) as 0.00215

###

details: in isopropanol, 288.15 K
QUANTITY_NAME: solubility (mole fraction)
Enter a number only.

Kindly note the recorded solubility (mole fraction) for CC(=O)Oc1ccc(C(c2ccc(OC(C)=O)cc2)c2ccccn2)cc1 , which is 8.1e-05
